targetOrTestSystem: NAD(P)H dehydrogenase [quinone] 1 (Homo sapiens) (UniProt P15559)
Sequence (P15559 whole entry): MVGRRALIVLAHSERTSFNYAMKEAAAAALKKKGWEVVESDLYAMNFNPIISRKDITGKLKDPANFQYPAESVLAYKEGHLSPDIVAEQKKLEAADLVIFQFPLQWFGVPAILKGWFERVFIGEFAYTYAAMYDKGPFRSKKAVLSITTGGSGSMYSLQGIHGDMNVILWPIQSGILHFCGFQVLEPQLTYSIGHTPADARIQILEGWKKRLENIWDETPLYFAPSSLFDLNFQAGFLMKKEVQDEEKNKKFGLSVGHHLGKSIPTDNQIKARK
assayName: Rate of reduction by human recombinant DTD
Type: functional
# maps each entry to its Rate of reduction
readout: Rate of reduction (µM/min/mg)

smilesNotation: CCC1=C(N2CC2)C(=O)C(CC)=C(N2CC2)C1=O
endpointValue: 3

smilesNotation: CC(C)C1=C(N2CC2)C(=O)C(C(C)C)=C(N2CC2)C1=O
endpointValue: 0.22

smilesNotation: CC1=C(N2CC2)C(=O)C(C)=C(N2CC2)C1=O
endpointValue: 21

smilesNotation: CCCC1=C(N2CC2)C(=O)C(CCC)=C(N2CC2)C1=O
endpointValue: 1

smilesNotation: CCCC1=C(N2CC2)C(=O)C(C)=C(N2CC2)C1=O
endpointValue: 7.9

smilesNotation: CCC1=C(N2CC2)C(=O)C(C)=C(N2CC2)C1=O
endpointValue: 12.5

smilesNotation: O=C1C=C(N2CC2)C(=O)C=C1N1CC1
endpointValue: 35.6

smilesNotation: CC1=C(N2CC2)C(=O)C(C(C)C)=C(N2CC2)C1=O
endpointValue: 2.7

* * *

Test system: NCI-H596
assayName: In vitro cytotoxicity against H596 cell line
Format: functional, Homo sapiens

smilesNotation: CC1=C(N2CC2)C(=O)C(C)=C(N2CC2)C1=O
readoutUnit: nM
Cytotoxicity: 48.8
//
smilesNotation: CCC1=C(N2CC2)C(=O)C(C)=C(N2CC2)C1=O
readoutUnit: nM
Cytotoxicity: 98.5
//
smilesNotation: CCCC1=C(N2CC2)C(=O)C(CCC)=C(N2CC2)C1=O
readoutUnit: nM
Cytotoxicity: 1290
//
smilesNotation: CCC1=C(N2CC2)C(=O)C(CC)=C(N2CC2)C1=O
readoutUnit: nM
Cytotoxicity: 1160
//
smilesNotation: O=C1C=C(N2CC2)C(=O)C=C1N1CC1
readoutUnit: nM
Cytotoxicity: 12.9
//
smilesNotation: CCCC1=C(N2CC2)C(=O)C(C)=C(N2CC2)C1=O
readoutUnit: nM
Cytotoxicity: 228
//
smilesNotation: CC1=C(N2CC2)C(=O)C(C(C)C)=C(N2CC2)C1=O
readoutUnit: nM
Cytotoxicity: 1230
//
smilesNotation: CC(C)C1=C(N2CC2)C(=O)C(C(C)C)=C(N2CC2)C1=O
readoutUnit: nM
Cytotoxicity: 2620

* * *

assayName: Rate of reduction by human BE cell extract
Type: functional
# maps each entry to its log10 Rate of reduction
readout: log10 Rate of reduction (log10 of the value in nM/min/mg)

smilesNotation: CC1=C(N2CC2)C(=O)C(C)=C(N2CC2)C1=O
log10 Rate of reduction: 0.96
//
smilesNotation: CC1=C(N2CC2)C(=O)C(C(C)C)=C(N2CC2)C1=O
log10 Rate of reduction: 0.04
//
smilesNotation: CCCC1=C(N2CC2)C(=O)C(CCC)=C(N2CC2)C1=O
log10 Rate of reduction: 0.23
//
smilesNotation: CCC1=C(N2CC2)C(=O)C(C)=C(N2CC2)C1=O
log10 Rate of reduction: 0.60
//
smilesNotation: CCC1=C(N2CC2)C(=O)C(CC)=C(N2CC2)C1=O
log10 Rate of reduction: 0.36
//
smilesNotation: CCCC1=C(N2CC2)C(=O)C(C)=C(N2CC2)C1=O
log10 Rate of reduction: 0.53
//
smilesNotation: O=C1C=C(N2CC2)C(=O)C=C1N1CC1
log10 Rate of reduction: 1.40
